- TARGET_OR_SYSTEM: EGFR L858R/T790M (Homo sapiens, UniProt P00533, L858R/T790M)
- Construct: purchased Carna Bio
- Sequence (P00533 25-1210 T790M/L858R): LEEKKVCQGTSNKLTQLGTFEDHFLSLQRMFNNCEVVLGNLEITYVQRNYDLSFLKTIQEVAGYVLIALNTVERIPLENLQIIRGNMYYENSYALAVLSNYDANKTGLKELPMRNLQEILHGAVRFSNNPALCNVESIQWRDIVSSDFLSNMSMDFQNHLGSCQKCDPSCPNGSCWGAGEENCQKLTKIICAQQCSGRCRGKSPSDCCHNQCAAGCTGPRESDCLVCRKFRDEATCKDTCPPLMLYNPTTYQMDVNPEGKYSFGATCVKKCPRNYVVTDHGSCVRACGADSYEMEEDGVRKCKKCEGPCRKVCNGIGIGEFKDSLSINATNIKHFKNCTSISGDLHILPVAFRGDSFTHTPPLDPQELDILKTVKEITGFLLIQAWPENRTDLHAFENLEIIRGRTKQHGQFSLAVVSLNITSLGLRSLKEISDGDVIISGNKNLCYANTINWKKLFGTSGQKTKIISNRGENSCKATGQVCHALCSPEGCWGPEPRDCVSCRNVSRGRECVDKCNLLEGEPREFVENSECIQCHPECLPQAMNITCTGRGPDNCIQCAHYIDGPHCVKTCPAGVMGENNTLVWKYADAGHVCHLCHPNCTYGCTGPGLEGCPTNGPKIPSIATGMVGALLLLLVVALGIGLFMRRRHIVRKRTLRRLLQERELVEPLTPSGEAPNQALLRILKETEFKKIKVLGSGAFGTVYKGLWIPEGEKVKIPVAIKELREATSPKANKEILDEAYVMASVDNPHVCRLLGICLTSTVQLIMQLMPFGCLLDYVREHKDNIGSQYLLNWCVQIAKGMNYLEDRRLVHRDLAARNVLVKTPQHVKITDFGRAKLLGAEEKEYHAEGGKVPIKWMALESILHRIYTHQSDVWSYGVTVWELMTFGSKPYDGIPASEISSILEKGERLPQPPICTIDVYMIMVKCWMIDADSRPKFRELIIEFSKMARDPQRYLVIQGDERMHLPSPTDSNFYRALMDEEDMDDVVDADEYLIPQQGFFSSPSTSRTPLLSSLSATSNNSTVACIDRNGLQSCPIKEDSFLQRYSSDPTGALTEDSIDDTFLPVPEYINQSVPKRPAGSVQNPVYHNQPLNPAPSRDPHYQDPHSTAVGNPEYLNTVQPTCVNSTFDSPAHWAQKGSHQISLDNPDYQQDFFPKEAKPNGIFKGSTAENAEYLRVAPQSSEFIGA
- EXPERIMENT_DESCRIPTION: Inhibition of EGFR L858R/T790M biochemical enzymatic activity (HTRF)
- MEASUREMENT_PARAMETERS: EGFR L858R-T790M, 1 mM ATP, 1 h, room temperature, read-out: IC50 (nM) @L858R-T790M
QUANTITY_MEASURED: IC50 (nM)

1) Cn1ncc2c1OCCN1CC3CCC(C3)(C1)n1c(nc3cc(F)c(N4CCOCC4)cc31)NC(=O)c1cc-2c(=O)n(C)c1 (single isomer, unassigned) [Example A118B]: 61
2) CN(C)[C@@H]1CCN(c2ccc3nc4n(c3c2)C23CCC(CC2)CN(CCOc2c(cnn2C)-c2cc(cn(C)c2=O)C(=O)N4)C3)C1: 477

====

- TARGET_OR_SYSTEM: EGFR L858R/T790M (Homo sapiens, UniProt P00533, L858R/T790M)
- Construct: purchased Carna Bio
- EXPERIMENT_DESCRIPTION: Inhibition of EGFR L858R/T790M biochemical enzymatic activity (HTRF)
- MEASUREMENT_PARAMETERS: EGFR L858R/T790M, 1 mM ATP, 1 h at room temperature, read-out: IC50 @L858R-T790M
pIC50: −log10 of the molar value.
QUANTITY_MEASURED: pIC50

1. Cc1cc2cc(n1)-c1cnn(C)c1OCCC[C@@H](C)Cn1c(nc3ccc4c(c31)CCN(C1COC1)C4)NC2=O [Example B13]: 8.15
2. Cc1cc2cc(n1)-c1cnn(C)c1OCCN1CC3CCC(C3)(C1)n1c(nc3ccc(N4CCC5(CC4)CCN5C)cc31)NC2=O (single isomer, unassigned) [Example B54B]: 8.51
3. Cc1cc2cc(n1)-c1cnn(C)c1OCCN1CC3CCC(CC3)(C1)n1c(nc3ccc(N4CCC5(CN(C)C5)C4)cc31)NC2=O [Example B37]: 7.89
4. Cc1cc2cc(n1)-c1cnn(C)c1OCCN1CC3CCC(C3)(C1)n1c(nc3ccc(N4CCC(N5CCOCC5)C4)cc31)NC2=O (single isomer, unassigned) [Example B44B]: 7.89
5. Cc1cc2cc(n1)-c1cnn(C)c1OCCN1CC3CCC(CC3)(C1)n1c(nc3ccc(N4CCC5(CC4)CCN5C)cc31)NC2=O [Example B30]: 7.96
6. Cc1cc2cc(n1)-c1cnn(C)c1OCCN1CC3CCC(C3)(C1)n1c(nc3ccc(N4CC[C@@H](N(C)C)C4)cc31)NC2=O (single isomer, unassigned) [Example B42B]: 8.00
7. Cc1cc2cc(n1)-c1cnn(C)c1OCCN1CC3CCC(CC3)(C1)n1c(nc3ccc(N4CCC5(CCN(C)CC5)C4)cc31)NC2=O [Example B31]: 7.70

====

Consider the following compounds and their measured IC50 readings.
- TARGET_OR_SYSTEM: EGFR L858R/T790M (Homo sapiens, UniProt P00533, L858R/T790M)
- Construct: purchased Carna Bio
- EXPERIMENT_DESCRIPTION: Inhibition of EGFR L858R/T790M biochemical enzymatic activity (HTRF)
- MEASUREMENT_PARAMETERS: EGFR L858R/T790M, 1 mM ATP, 1 h at room temperature, read-out: IC50 @L858R-T790M
- Experimental: Biological Example 1: Inhibition of EGFR WT and Mutant Biochemical Enzymatic Activity The inhibition potency of compounds against these enzymes was assessed using Homogenous Time Resolved Fluorescence approach (HTRF, CisBio. Cat No. 62TKOPEJ). Inhibitory effects of the compounds were determined by measuring the enzymatic activity of EGFR enzyme phosphorylates 1 μM TK Substrate-biotin in the presence of 1 mM adenosine-5′-triphosphate (ATP) and varying concentrations of the test compound. […]
QUANTITY_MEASURED: IC50 (nM)

1) Cc1cc2cc(n1)-c1cnn(C)c1OCCN1CC3CCC(CC3)(C1)n1c(nc3ccc(N4CCC5(CCN(C)CC5)C4)cc31)NC2=O [Example B38]: 37
2) Cc1cc2cc(n1)-c1cnn(C)c1OCCN1CC3CCC(CC3)(C1)n1c(nc3ccc(N4CCN(C(C)C)CC4)cc31)NC2=O: 7.7
3) Cc1cc2cc(n1)-c1cnn(C)c1OCCN1CC3CCC(C3)(C1)n1c(nc3ccc(N4CCN(C)CC4)cc31)NC2=O (stereo not drawn) [Example B9B]: 1.1
4) Cc1cc2cc(n1)-c1cnn(C)c1OCCN1CC3CCC(C3)(C1)n1c(nc3ccc(N4CCC(N5CCN(C)CC5)C4)cc31)NC2=O (single isomer, unassigned) [Example B49B]: 5.6
5) Cc1cc2cc(n1)-c1cnn(C)c1OCCN1CC3CCC(C3)(C1)n1c(nc3ccc(N(C)CCCN(C)C)cc31)NC2=O (single isomer, unassigned) [Example B45B]: 3.8
6) Cc1cc2cc(n1)-c1cnn(C)c1OCCN1CCOCC(C1)n1c(nc3ccccc31)NC2=O (stereo not drawn) [Example B7]: 1960
7) Cc1cc2cc(n1)-c1cnn(C)c1OCCN1CC3CCC(C3)(C1)n1c(nc3ccc(N4CC[C@H](N(C)C)C4)cc31)NC2=O (single isomer, unassigned) [Example B41B]: 4.2
8) Cc1cc2cc(n1)-c1cnn(C)c1OCCN1CC3CCC(C3)(C1)n1c(nc3ccc(N4CCC5(CCN(C)CC5)C4)cc31)NC2=O (single isomer, unassigned) [Example B51B]: 5.9
9) Cc1cc2cc(n1)-c1cnn(C)c1OCCN1CC3CCC(C3)(C1)n1c(nc3ccc(N4CC(N5CCOCC5)C4)cc31)NC2=O (single isomer, unassigned) [Example B48B]: 6.7

====

- Test system: Ba/F3 cells expressing EGFR mutations
- EXPERIMENT_DESCRIPTION: Cell proliferation assay, Ba/F3 cells expressing EGFR mutations (CellTiter-Glo, 72 hours)
- Format: cell-based
- MEASUREMENT_PARAMETERS: Mus musculus, BaF3, 72 h, BaF3 cells, EGFR L858R-T790M, CellTiter-Glo, read-out: L858R-T790M/BaF3 GI50
Hi! Just check whether GI50 is below 50 nM. Below gives 1 (yes), equal or above gives 0 (no).

1) CN1CCN(c2ccc3nc4n(c3c2)CC2(CCCOc3c(cnn3C)-c3cc(cn(C)c3=O)C(=O)N4)CC2)CC1: 0 (no)
2) C[C@@H]1CCCOc2c(cnn2C)-c2cc(cn(C)c2=O)C(=O)Nc2nc3ccc(N4CC5(CN(C)C5)C4)cc3n2C1: 1 (yes)
3) CN(C)CCC1CN(c2ccc3nc4n(c3c2)C23CCC(CN(CCOc5c(cnn5C)-c5cc(cn(C)c5=O)C(=O)N4)C2)C3)C1 (single isomer, unassigned) [Example A95B]: 0 (no)
4) C[C@@H]1CCCOc2c(cnn2C)-c2cc(cn(C)c2=O)C(=O)Nc2nc3ccc4c(c3n2C1)CCNC4: 0 (no)
5) C[C@@H]1CCCOc2c(cnn2C)-c2cc(cn(C)c2=O)C(=O)Nc2nc3ccc(N4CCC(N5CCN(C)CC5)CC4)cc3n2C1: 1 (yes)
6) CCN1CCN(c2ccc3nc4n(c3c2)C[C@H](C)CCCOc2c(cnn2C)-c2cc(cn(C)c2=O)C(=O)N4)CC1: 0 (no)
7) Cn1ncc2c1OCCN(CC(F)(F)F)CCn1c(nc3ccccc31)NC(=O)c1cc-2c(=O)n(C)c1: 0 (no)
8) CCn1ncc2c1OCCC[C@@H](C)Cn1c(nc3ccc(N4CCN(C)CC4)cc31)NC(=O)c1cc-2c(=O)n(C)c1: 1 (yes)
9) Cn1ncc2c1OCCN1CC3CCC(C3)(C1)n1c(nc3cc(Br)ccc31)NC(=O)c1cc-2c(=O)n(C)c1 (centres unmarked): 0 (no)
10) Cn1ncc2c1OCCN1CCCCC(C1)n1c(nc3ccccc31)NC(=O)c1cc-2c(=O)n(C)c1 (centres unmarked): 0 (no)
11) C[C@@H]1CCCOc2c(cnn2C)-c2cc(cn(C)c2=O)C(=O)Nc2nc3ccc(N4CCN(C5CC5)CC4)cc3n2C1: 0 (no)
12) C[C@@H]1CCCOc2c(cnn2C)-c2cc(cn(C)c2=O)C(=O)Nc2nc3ccc(N4CCN(C5COC5)CC4)cc3n2C1: 1 (yes)
13) C[C@@H]1CCCOc2c(cnn2C)-c2cc(cn(C)c2=O)C(=O)Nc2nc3ccc(N4CCC(N(C)C)C(F)C4)cc3n2C1 (some centres unmarked): 1 (yes)

====

- TARGET_OR_SYSTEM: EGFR[T790M/C797S/L858R] (Homo sapiens, UniProt P00533, C797S/L858R/T790M)
- Construct: purchased Carna Bio
- Sequence (P00533 25-1210 T790M/C797S/L858R): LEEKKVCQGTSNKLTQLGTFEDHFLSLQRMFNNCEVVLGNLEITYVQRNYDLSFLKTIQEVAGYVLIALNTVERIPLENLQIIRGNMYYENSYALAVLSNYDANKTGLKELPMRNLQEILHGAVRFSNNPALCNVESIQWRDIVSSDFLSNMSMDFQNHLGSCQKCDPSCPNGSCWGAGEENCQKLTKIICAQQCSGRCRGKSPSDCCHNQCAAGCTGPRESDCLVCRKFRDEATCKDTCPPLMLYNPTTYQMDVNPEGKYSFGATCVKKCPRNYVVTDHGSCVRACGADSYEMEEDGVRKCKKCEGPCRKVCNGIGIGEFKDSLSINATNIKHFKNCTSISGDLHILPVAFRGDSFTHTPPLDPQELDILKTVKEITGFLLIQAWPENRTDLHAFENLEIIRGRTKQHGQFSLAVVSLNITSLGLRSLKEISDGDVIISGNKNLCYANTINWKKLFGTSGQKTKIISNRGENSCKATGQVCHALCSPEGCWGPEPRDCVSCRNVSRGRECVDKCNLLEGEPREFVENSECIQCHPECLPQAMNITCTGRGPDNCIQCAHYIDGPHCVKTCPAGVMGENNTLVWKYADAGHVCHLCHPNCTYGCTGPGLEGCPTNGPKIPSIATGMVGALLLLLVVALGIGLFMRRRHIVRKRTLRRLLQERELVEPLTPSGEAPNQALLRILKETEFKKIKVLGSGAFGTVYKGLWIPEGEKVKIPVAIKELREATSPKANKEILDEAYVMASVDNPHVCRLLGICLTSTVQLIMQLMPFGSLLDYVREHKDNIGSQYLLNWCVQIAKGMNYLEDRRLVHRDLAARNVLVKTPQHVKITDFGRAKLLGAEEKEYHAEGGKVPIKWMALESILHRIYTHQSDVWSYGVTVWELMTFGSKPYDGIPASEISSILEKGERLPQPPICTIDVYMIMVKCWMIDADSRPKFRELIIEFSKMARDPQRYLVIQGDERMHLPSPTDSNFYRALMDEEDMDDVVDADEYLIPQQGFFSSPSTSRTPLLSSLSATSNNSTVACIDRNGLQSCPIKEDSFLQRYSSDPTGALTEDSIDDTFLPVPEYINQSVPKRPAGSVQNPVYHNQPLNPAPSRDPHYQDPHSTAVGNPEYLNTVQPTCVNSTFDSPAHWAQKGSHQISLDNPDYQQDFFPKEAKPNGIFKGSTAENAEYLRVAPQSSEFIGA
- EXPERIMENT_DESCRIPTION: Inhibition of EGFR[T790M/C797S/L858R] biochemical enzymatic activity (HTRF)
- MEASUREMENT_PARAMETERS: EGFR T790M-C797S-L858R, 1 mM ATP, 1 h, room temperature, read-out: IC50 (nM) @T790M- C797S - L858R
QUANTITY_MEASURED: log10 of IC50 (log10 of the value in nM)

1. CN(C)CC1(F)CN(c2ccc3nc4n(c3c2)C23CCC(CN(CCOc5c(cnn5C)-c5cc(cn(C)c5=O)C(=O)N4)C2)C3)C1 (single isomer, unassigned) [Example A72B]: 0.11
2. CN1CCN(c2ccc3nc4n(c3c2)CCN(CC(F)(F)F)CCOc2c(cnn2C)-c2cc(cn(C)c2=O)C(=O)N4)CC1 [Example A3]: 0.93
3. CN1CCN(c2ccc3nc4n(c3c2)C(C)(C)CCCCOc2c(cnn2C)-c2cc(cn(C)c2=O)C(=O)N4)CC1 [Example A112]: 1.72
4. Cc1cc2cc(n1)-c1cnn(C3CC3)c1OCCN(CC(F)(F)F)CCn1c(nc3ccccc31)NC2=O [Example B6]: 0.49
5. CC(C)N1CCN(c2ccc3nc4n(c3c2)C23CCC(CN(CCOc5c(cnn5C)-c5cc(cn(C)c5=O)C(=O)N4)C2)C3)CC1 (single isomer, unassigned) [Example A108B]: 0.04
6. CN1CC2CC1CN2c1ccc2nc3n(c2c1)C12CCC(CN(CCOc4c(cnn4C)-c4cc(cn(C)c4=O)C(=O)N3)C1)C2 (single isomer, unassigned) [Example A105B]: 0.18
7. Cn1ncc2c1OCCN1CCCC(C)(C1)n1c(nc3ccc(N4CCOCC4)cc31)NC(=O)c1cc-2c(=O)n(C)c1 (stereo not drawn) [Example A10]: 3.64
8. C[C@@H]1CCCOc2c(cnn2C)-c2cc(cn(C)c2=O)C(=O)Nc2nc3ccc(N4CC5(CN(C)CCO5)C4)cc3n2C1 [Example A47]: 0.69
9. C[C@@H]1CCCOc2c(cnn2C)-c2cc(cn(C)c2=O)C(=O)Nc2nc3ccc(N4CCC(N(C)C)C(F)(F)C4)cc3n2C1 (stereo partly drawn) [Example A51]: 1.38
10. C[C@@H]1CCCOc2c(cnn2C)-c2cc(cn(C)c2=O)C(=O)Nc2nc3ccc4c(c3n2C1)CCNC4 [Example A102]: 1.51
11. CN1CCC2(CCN(c3ccc4nc5n(c4c3)C34CCC(CN(CCOc6c(cnn6C)-c6cc(cn(C)c6=O)C(=O)N5)C3)C4)CC2)C1 (single isomer, unassigned) [Example A82B]: 0.23
12. C[C@@H]1CCCOc2c(cnn2C)-c2cc(cn(C)c2=O)C(=O)Nc2nc3ccc(N4CCN(C)CC4)cc3n2C1 [Example A25]: 0.20
13. Cn1ncc2c1OCCN1CC3CCC(CC3)(C1)n1c(nc3ccccc31)NC(=O)c1cc-2c(=O)n(C)c1 [Example A100]: 3.47
14. C[C@@H]1CCCOc2c(cnn2C)-c2cc(cn(C)c2=O)C(=O)Nc2nc3ccc(N4CCC(N5CCN(C)CC5)C4)cc3n2C1 (stereo partly drawn) [Example A33]: 0.72
15. C[C@@H]1CCCOc2c(cnn2C)-c2cc(cn(C)c2=O)C(=O)Nc2nc3ccc(N4CCC(N(C)C)C4)cc3n2C1 (stereo partly drawn) [Example A27]: 1.30
16. CN1CCN(c2cc3c(cc2F)nc2n3C34CCC(CC3)CN(CCOc3c(cnn3C)-c3cc(cn(C)c3=O)C(=O)N2)C4)CC1 [Example A115]: 1.70
